These data points were gathered from patent US20210130436A1.

In this section we review reported MFI at 100 nM values for a set of binders.
# target.system: T1, CD226 (Homo sapiens (Human), UniProt Q15762 19-336)
# T1 sequence: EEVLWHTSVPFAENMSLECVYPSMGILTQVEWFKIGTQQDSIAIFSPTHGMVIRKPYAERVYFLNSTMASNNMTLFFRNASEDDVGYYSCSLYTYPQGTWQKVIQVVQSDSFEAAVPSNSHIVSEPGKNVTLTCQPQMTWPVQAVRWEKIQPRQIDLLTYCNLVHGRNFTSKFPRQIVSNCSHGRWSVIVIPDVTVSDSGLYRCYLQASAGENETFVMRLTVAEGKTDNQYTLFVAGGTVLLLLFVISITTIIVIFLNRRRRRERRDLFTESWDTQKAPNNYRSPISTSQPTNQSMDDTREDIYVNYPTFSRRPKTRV
# assay.info: flow cytometry, Fc fusion at 100 nM, CD226-transfected cells

>  <binder>
variant CD155 IgV-Fc S42A/L104Q/G111R (Fc fusion, not shown: a dimerising Fc or GST) WPPPGTGDVVVQAPTQVPGFLGDSVTLPCYLQVPNMEVTHVAQLTWARHGESGSMAVFHQTQGPSYSESKRLEFVAARLGAELRNASLRMFGLRVEDEGNYTCQFVTFPQRSRSVDIWLRVL

>  <MFI at 100 nM [MFI]>
1900

$$$$
>  <binder>
variant CD155 IgV-Fc S42L/S52L/Q62F/L104Q (Fc fusion, not shown: a dimerising Fc or GST) WPPPGTGDVVVQAPTQVPGFLGDSVTLPCYLQVPNMEVTHVLQLTWARHGELGSMAVFHQTFGPSYSESKRLEFVAARLGAELRNASLRMFGLRVEDEGNYTCQFVTFPQGSRSVDIWLRVL

>  <MFI at 100 nM [MFI]>
2640

$$$$
>  <binder>
variant CD155 IgV-Fc S52M/Q62Y (Fc fusion, not shown: a dimerising Fc or GST) WPPPGTGDVVVQAPTQVPGFLGDSVTLPCYLQVPNMEVTHVSQLTWARHGEMGSMAVFHQTYGPSYSESKRLEFVAARLGAELRNASLRMFGLRVEDEGNYTCLFVTFPQGSRSVDIWLRVL

>  <MFI at 100 nM [MFI]>
2000

$$$$
>  <binder>
variant CD155 IgV-Fc S52W/L104E (Fc fusion, not shown: a dimerising Fc or GST) WPPPGTGDVVVQAPTQVPGFLGDSVTLPCYLQVPNMEVTHVSQLTWARHGEWGSMAVFHQTQGPSYSESKRLEFVAARLGAELRNASLRMFGLRVEDEGNYTCEFVTFPQGSRSVDIWLRVL

>  <MFI at 100 nM [MFI]>
1910

$$$$
